Test: Tmax in female Beagle dog at 1 mg/kg,iv measured upto 24 hrs
Assay type: ADME, organism-based, Canis lupus familiaris
Details: in vivo
endpoint: Tmax (min)
# output: bare number, implied unit min

// query Suppose we examine the compound "CC(=O)O[C@@]12CO[C@@H]1C[C@H](O)[C@@]1(C)C(=O)[C@H](O)C3=C(C)[C@@H](OC(=O)[C@H](OC(=O)CCC(=O)NCCCC[C@H](NC(=O)CC[C@@H](NC(=O)[C@H](C)NC(=O)/C=C/c4ccc(F)cc4Cl)C(N)=O)C(=O)O)[C@@H](NC(=O)OC(C)(C)C)c4ccccc4)C[C@@](O)([C@@H](OC(=O)c4ccccc4)[C@H]21)C3(C)C" ; what Tmax value has been reported?
// result 30

---

Test: AUC (0-t) in Beagle dog at 1 mg/kg,iv measured upto 24 hrs
Assay type: ADME, organism-based, Canis lupus familiaris
Design: dose 1 mg/kg, time < 24 hrs, route iv
Settings: in vivo
endpoint: AUC(0-t) at 24 h (ng·h/mL)
# output: bare number, implied unit ng·h/mL

// query Suppose we examine the compound "CC(=O)O[C@@]12CO[C@@H]1C[C@H](O)[C@@]1(C)C(=O)[C@H](O)C3=C(C)[C@@H](OC(=O)[C@H](OC(=O)CCC(=O)NCCCC[C@H](NC(=O)CC[C@@H](NC(=O)[C@H](C)NC(=O)/C=C/c4ccc(F)cc4Cl)C(N)=O)C(=O)O)[C@@H](NC(=O)OC(C)(C)C)c4ccccc4)C[C@@](O)([C@@H](OC(=O)c4ccccc4)[C@H]21)C3(C)C" ; what AUC(0-t) at 24 h value has been reported?
// result 1590

---

Assay: Plasma protein binding in human plasma incubated for 4 hrs
Assay type: ADME, cell-free
Settings: read-out: PPB (converted)
endpoint: fraction unbound at 4 h
Please give only the number in your answer, with no unit.

// query Suppose we examine the molecule "CC(=O)O[C@@]12CO[C@@H]1C[C@H](O)[C@@]1(C)C(=O)[C@H](O)C3=C(C)[C@@H](OC(=O)[C@H](OC(=O)CCC(=O)NCCCC[C@H](NC(=O)CC[C@@H](NC(=O)[C@H](C)NC(=O)/C=C/c4ccc(F)cc4Cl)C(N)=O)C(=O)O)[C@@H](NC(=O)OC(C)(C)C)c4ccccc4)C[C@@](O)([C@@H](OC(=O)c4ccccc4)[C@H]21)C3(C)C" ; what fraction unbound at 4 h value has been reported?
// result 0.007

---

Experiment: MRT in mouse tumor implanted with mouse 4T1 cells at 5.7 mg/kg,iv measured upto 72 hrs
Type: ADME, organism-based, Neoplasm
endpoint: MRT (h)
# output: bare number, implied unit h

// query Suppose we examine the compound CC(=O)O[C@@]12CO[C@@H]1C[C@H](O)[C@@]1(C)C(=O)[C@H](O)C3=C(C)[C@@H](OC(=O)[C@H](O)[C@@H](NC(=O)OC(C)(C)C)c4ccccc4)C[C@@](O)([C@@H](OC(=O)c4ccccc4)[C@H]21)C3(C)C [DOCETAXEL ANHYDROUS] ; what MRT value has been reported?
// result 73.3

---

Assay: AUC (0-infinity) in Beagle dog at 2 mg/kg,iv measured upto 24 hrs
Format: ADME, organism-based, Canis lupus familiaris
Design: dose 2 mg/kg, time < 24 hrs, route iv
Details: in vivo
endpoint: AUC(0-inf)
Number plus unit, in that order.

// query Suppose we examine the molecule "CC(=O)O[C@@]12CO[C@@H]1C[C@H](O)[C@@]1(C)C(=O)[C@H](O)C3=C(C)[C@@H](OC(=O)[C@H](OC(=O)CCC(=O)NCCCC[C@H](NC(=O)CC[C@@H](NC(=O)[C@H](C)NC(=O)/C=C/c4ccc(F)cc4Cl)C(N)=O)C(=O)O)[C@@H](NC(=O)OC(C)(C)C)c4ccccc4)C[C@@](O)([C@@H](OC(=O)c4ccccc4)[C@H]21)C3(C)C" ; what AUC(0-inf) value has been reported?
// result 5950 ng·h/mL

---

Test: Half life in mouse plasma implanted with mouse 4T1 cells at 10 mg/kg,iv measured upto 72 hrs
Type: ADME, organism-based
endpoint: half-life (min)
# output: bare number, implied unit min

// query Suppose we examine the compound "CC(=O)O[C@@]12CO[C@@H]1C[C@H](O)[C@@]1(C)C(=O)[C@H](O)C3=C(C)[C@@H](OC(=O)[C@H](OC(=O)CCC(=O)NCCCC[C@H](NC(=O)CC[C@@H](NC(=O)[C@H](C)NC(=O)/C=C/c4ccc(F)cc4Cl)C(N)=O)C(=O)O)[C@@H](NC(=O)OC(C)(C)C)c4ccccc4)C[C@@](O)([C@@H](OC(=O)c4ccccc4)[C@H]21)C3(C)C" ; what half-life value has been reported?
// result 41.4

---

Experiment: Half life in male Beagle dog at 2 mg/kg,iv measured upto 24 hrs
Type: ADME, organism-based, Canis lupus familiaris
Details: in vivo
endpoint: half-life (min)
# output: bare number, implied unit min

// query Suppose we examine the molecule "CC(=O)O[C@@]12CO[C@@H]1C[C@H](O)[C@@]1(C)C(=O)[C@H](O)C3=C(C)[C@@H](OC(=O)[C@H](OC(=O)CCC(=O)NCCCC[C@H](NC(=O)CC[C@@H](NC(=O)[C@H](C)NC(=O)/C=C/c4ccc(F)cc4Cl)C(N)=O)C(=O)O)[C@@H](NC(=O)OC(C)(C)C)c4ccccc4)C[C@@](O)([C@@H](OC(=O)c4ccccc4)[C@H]21)C3(C)C" ; what half-life value has been reported?
// result 30.2

---

Assay: Half life in rat at 4 mg/kg,iv measured upto 24 hrs
Assay type: ADME, organism-based
Conditions: in vivo
endpoint: half-life (min)
# output: bare number, implied unit min

// query Suppose we examine the compound "CC(=O)O[C@@]12CO[C@@H]1C[C@H](O)[C@@]1(C)C(=O)[C@H](O)C3=C(C)[C@@H](OC(=O)[C@H](OC(=O)CCC(=O)NCCCC[C@H](NC(=O)CC[C@@H](NC(=O)[C@H](C)NC(=O)/C=C/c4ccc(F)cc4Cl)C(N)=O)C(=O)O)[C@@H](NC(=O)OC(C)(C)C)c4ccccc4)C[C@@](O)([C@@H](OC(=O)c4ccccc4)[C@H]21)C3(C)C" ; what half-life value has been reported?
// result 10.6

---

Assay: Volume of distribution at steady state in male rat at 8 mg/kg,iv measured upto 24 hrs
Format: ADME, organism-based
Details: in vivo, read-out: Vdss
endpoint: Vd (L/kg)
# output: bare number, implied unit L/kg

// query Suppose we examine the compound "CC(=O)O[C@@]12CO[C@@H]1C[C@H](O)[C@@]1(C)C(=O)[C@H](O)C3=C(C)[C@@H](OC(=O)[C@H](OC(=O)CCC(=O)NCCCC[C@H](NC(=O)CC[C@@H](NC(=O)[C@H](C)NC(=O)/C=C/c4ccc(F)cc4Cl)C(N)=O)C(=O)O)[C@@H](NC(=O)OC(C)(C)C)c4ccccc4)C[C@@](O)([C@@H](OC(=O)c4ccccc4)[C@H]21)C3(C)C" ; what Vd value has been reported?
// result 0.096

---

Assay: Tmax in male rat at 8 mg/kg,iv measured upto 24 hrs
Format: ADME, organism-based
Conditions: in vivo
endpoint: Tmax (min)
# output: bare number, implied unit min

// query Suppose we examine the compound "CC(=O)O[C@@]12CO[C@@H]1C[C@H](O)[C@@]1(C)C(=O)[C@H](O)C3=C(C)[C@@H](OC(=O)[C@H](OC(=O)CCC(=O)NCCCC[C@H](NC(=O)CC[C@@H](NC(=O)[C@H](C)NC(=O)/C=C/c4ccc(F)cc4Cl)C(N)=O)C(=O)O)[C@@H](NC(=O)OC(C)(C)C)c4ccccc4)C[C@@](O)([C@@H](OC(=O)c4ccccc4)[C@H]21)C3(C)C" ; what Tmax value has been reported?
// result 4.98

---

Assay: Volume of distribution at steady state in female rat at 2 mg/kg,iv measured upto 24 hrs
Assay type: ADME, organism-based
Details: in vivo, read-out: Vdss
endpoint: Vd
Number plus unit, in that order.

// query Suppose we examine the molecule "CC(=O)O[C@@]12CO[C@@H]1C[C@H](O)[C@@]1(C)C(=O)[C@H](O)C3=C(C)[C@@H](OC(=O)[C@H](OC(=O)CCC(=O)NCCCC[C@H](NC(=O)CC[C@@H](NC(=O)[C@H](C)NC(=O)/C=C/c4ccc(F)cc4Cl)C(N)=O)C(=O)O)[C@@H](NC(=O)OC(C)(C)C)c4ccccc4)C[C@@](O)([C@@H](OC(=O)c4ccccc4)[C@H]21)C3(C)C" ; what Vd value has been reported?
// result 0.067 L/kg

---

Assay: Tmax in female rat at 8 mg/kg,iv measured upto 24 hrs
Assay type: ADME, organism-based
Settings: in vivo
endpoint: Tmax (min)
# output: bare number, implied unit min

// query Suppose we examine the compound "CC(=O)O[C@@]12CO[C@@H]1C[C@H](O)[C@@]1(C)C(=O)[C@H](O)C3=C(C)[C@@H](OC(=O)[C@H](OC(=O)CCC(=O)NCCCC[C@H](NC(=O)CC[C@@H](NC(=O)[C@H](C)NC(=O)/C=C/c4ccc(F)cc4Cl)C(N)=O)C(=O)O)[C@@H](NC(=O)OC(C)(C)C)c4ccccc4)C[C@@](O)([C@@H](OC(=O)c4ccccc4)[C@H]21)C3(C)C" ; what Tmax value has been reported?
// result 4.98

Values from ChEMBL document CHEMBL5252546
